Here, each record is paired with measured kcat data.
Assay: Kinetic assay of purified DAOCS with penicillin N as main substrate
Type: biochemical
Conditions: for penicillin N; 0.5 μg purified DAOCS, 30° C., 10 minutes
Description: The cell extract (2 ml) of a candidate mutant was applied onto a HiTrap Q column (5 ml) pre-equilibrated with buffer B (50 mM Mops/pH 7.5, 1 mM DTT, 0.4 mM pefabloc SC, and 0.5 μg/ml leupeptin). […] The standard penicillin G assay was followed for kinetic assay, but 20 μg of purified DAOCS was used and the concentration of α-ketoglutarate was reduced to 1 mM. […] The filtrate was analyzed by HPLC using 25 mM potassium phosphate/pH 6.5 as a mobile phase. […]
observation.type: kcat (S^−1)

INSERT INTO assay_data (molecule, observation_type, unit_annotation, measured_number) VALUES
  ('YS123: mutated penicillin expandase (DAOCS) with substitution H244Q (protein, UniProt P18548 1-311, looked up, variant H244Q) Deacetoxycephalosporin C …: MDTTVPTFSLAELQQGLHQDEFRRCLRDKGLFYLTDCGLTDTELKSAKDLVIDFFEHGSEAEKRAVTSPVPTMRRGFTGLESESTAQITNTGSYSDYSMCYSMGTADNLFPSGDFERIWTQYFDRQYTASRAVAREVLRATGTEPDGGVEAFLDCEPLLRFRYFPQVPEHRSAEEQPLRMAPHYDLSMVTLIQQTPCANGFVSLQAEVGGAFTDLPYRPDAVLVFCGAIATLVTGGQVKAPRHQVAAPRRDQIAGSSRTSSVFFLRPNADFTFSVPLARECGFDVSLDGETATFQDWIGGNYVNIRRTSKA', 'kcat', 'S^−1', 0.260),
  ('YS53: mutated penicillin expandase (DAOCS) with substitution C281Y (protein, UniProt P18548 1-311, looked up, variant C281Y) Deacetoxycephalosporin C …: MDTTVPTFSLAELQQGLHQDEFRRCLRDKGLFYLTDCGLTDTELKSAKDLVIDFFEHGSEAEKRAVTSPVPTMRRGFTGLESESTAQITNTGSYSDYSMCYSMGTADNLFPSGDFERIWTQYFDRQYTASRAVAREVLRATGTEPDGGVEAFLDCEPLLRFRYFPQVPEHRSAEEQPLRMAPHYDLSMVTLIQQTPCANGFVSLQAEVGGAFTDLPYRPDAVLVFCGAIATLVTGGQVKAPRHHVAAPRRDQIAGSSRTSSVFFLRPNADFTFSVPLAREYGFDVSLDGETATFQDWIGGNYVNIRRTSKA', 'kcat', 'S^−1', 0.273);
